assay_system: UniProtKB P08909
procedure_details: Binding affinity against 5-hydroxytryptamine 1C receptor in rat using [3H]mesulergine as radioligand
Entries and their measured Ki follow.
readout_kind: Ki

[[record]]
compound = "CN1CCN(Cc2ccc(F)cc2)CC1.Cl.Cl"
assay_system = "UniProtKB P08909"
data_value = "> 10000 nM"

[[record]]
compound = "O=C(O)C(=O)O.O=C(c1ccc(F)cc1)C1CCN(CCCCc2ccccc2)CC1"
assay_system = "UniProtKB P08909"
data_value = "620 nM"

[[record]]
compound = "CN1CCN(C(=O)c2ccc(F)cc2)CC1"
assay_system = "UniProtKB P08909"
data_value = "> 10000 nM"

[[record]]
compound = "O=C(O)/C=C\\C(=O)O.O=c1[nH]c2ccccc2c(=O)n1CCNCCCc1ccccc1"
assay_system = "UniProtKB P08909"
data_value = "> 10000 nM"

[[record]]
compound = "O=C(O)C(=O)O.O=c1[nH]c2ccccc2c(=O)n1CCN1CCC(Cc2ccc(F)cc2)CC1"
assay_system = "UniProtKB P08909"
data_value = "200 nM"

[[record]]
compound = "O=C(c1ccccc1)C1CCNCC1"
assay_system = "UniProtKB P08909"
data_value = "> 10000 nM"

[[record]]
compound = "CN(CCCc1ccccc1)CCn1c(=O)[nH]c2ccccc2c1=O.O=C(O)C(=O)O"
assay_system = "UniProtKB P08909"
data_value = "1390 nM"

[[record]]
compound = "O=C(c1ccc(F)cc1)C1CCN(CCn2c(=O)[nH]c3ccccc3c2=O)CC1 [KETANSERIN]"
assay_system = "UniProtKB P08909"
data_value = "50 nM"

[[record]]
compound = "O=C(O)/C=C\\C(=O)O.O=c1[nH]c2ccccc2c(=O)n1CCNCCCCc1ccccc1"
assay_system = "UniProtKB P08909"
data_value = "> 10000 nM"

[[record]]
compound = "O=C(O)/C=C\\C(=O)O.O=c1[nH]c2ccccc2c(=O)n1CCN1CCC(Cc2ccccc2)CC1"
assay_system = "UniProtKB P08909"
data_value = "970 nM"

[[record]]
compound = "CN1CCN(C(=O)c2ccccc2)CC1"
assay_system = "UniProtKB P08909"
data_value = "> 10000 nM"

[[record]]
compound = "O=C(O)C(=O)O.O=C(c1ccc(F)cc1)C1CCN(CCCc2ccccc2)CC1"
assay_system = "UniProtKB P08909"
data_value = "940 nM"


----------
assay_system: 5-hydroxytryptamine receptor 2C (Rattus norvegicus)
Sequence (P08909 whole entry): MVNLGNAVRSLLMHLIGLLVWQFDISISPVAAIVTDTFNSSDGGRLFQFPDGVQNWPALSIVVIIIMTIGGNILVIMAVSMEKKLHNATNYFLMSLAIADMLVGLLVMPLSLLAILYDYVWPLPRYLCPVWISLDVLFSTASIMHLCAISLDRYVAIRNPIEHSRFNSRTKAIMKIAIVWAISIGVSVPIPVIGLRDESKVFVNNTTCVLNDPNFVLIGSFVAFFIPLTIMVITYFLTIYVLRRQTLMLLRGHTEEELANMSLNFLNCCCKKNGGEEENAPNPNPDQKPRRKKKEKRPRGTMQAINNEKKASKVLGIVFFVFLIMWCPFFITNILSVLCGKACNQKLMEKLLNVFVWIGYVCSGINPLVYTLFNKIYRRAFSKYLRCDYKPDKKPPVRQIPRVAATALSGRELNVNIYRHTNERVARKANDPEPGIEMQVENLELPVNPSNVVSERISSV
procedure_details: Binding affinity against 5-hydroxytryptamine 1C receptor in rat using [3H]mesulergine as radioligand
readout_kind: Ki (nM)

[[record]]
compound = "O=C(O)/C=C\\C(=O)O.O=C(c1ccccc1)C1CCN(CCn2c(=O)[nH]c3ccccc3c2=O)CC1"
cmp = "="
data_value = 760

[[record]]
compound = "O=C(NCCN1CCC(C(=O)c2ccc(F)cc2)CC1)Nc1ccccc1.O=C(O)C(=O)O"
cmp = "="
data_value = 200

[[record]]
compound = "O=C(O)C(=O)O.O=c1[nH]c2ccccc2c(=O)n1CCN1CCC(C(O)c2ccccc2)CC1 (stereo unspecified)"
cmp = ">"
data_value = 10000

[[record]]
compound = "O=C(c1ccc(F)cc1)C1CCNCC1"
cmp = "="
data_value = 1100

[[record]]
compound = "Cl.O=C(CCCN1CCC(C(=O)c2ccc(F)cc2)CC1)c1ccccc1"
cmp = "="
data_value = 350

[[record]]
compound = "c1ccc(CN2CCNCC2)cc1"
cmp = ">"
data_value = 10000


----------
assay_system: 5-hydroxytryptamine receptor 2C (Rattus norvegicus, UniProt P08909)
procedure_details: Binding affinity against 5-hydroxytryptamine 1C receptor in rat using [3H]mesulergine as radioligand
readout_kind: Ki (µM)

[[record]]
compound = "O=C(O)C(=O)O.O=C(c1ccc(F)cc1)C1CCN(CCCCCc2ccccc2)CC1"
uom = "µM"
cmp = "="
data_value = 0.42

[[record]]
compound = "CN1CCN(CCn2c(=O)[nH]c3ccccc3c2=O)CC1.Cl.Cl"
uom = "µM"
cmp = ">"
data_value = 10

[[record]]
compound = "Cl.NCCn1c(=O)[nH]c2ccccc2c1=O"
uom = "µM"
cmp = ">"
data_value = 10

[[record]]
compound = "O=C(O)C(=O)O.O=C(c1ccc(F)cc1)C1CCN(Cc2ccccc2)CC1"
uom = "µM"
cmp = "="
data_value = 3

[[record]]
compound = "CN(C)CCn1c(=O)[nH]c2ccccc2c1=O"
uom = "µM"
cmp = ">"
data_value = 10

[[record]]
compound = "O=C(O)C(=O)O.O=C(c1ccc(F)cc1)C1CCN(CCc2ccccc2)CC1"
uom = "µM"
cmp = "="
data_value = 0.145

[[record]]
compound = "O=C(NCCN1CCC(C(=O)c2ccc(F)cc2)CC1)c1ccccc1.O=C(O)C(=O)O"
uom = "µM"
cmp = "="
data_value = 1.61

[[record]]
compound = "CCN1CCC(C(=O)c2ccc(F)cc2)CC1"
uom = "µM"
cmp = "="
data_value = 3.16

[[record]]
compound = "CN1CCC(C(=O)c2ccc(F)cc2)CC1"
uom = "µM"
cmp = "="
data_value = 1.51

[[record]]
compound = "CCN1CCC(C(O)c2ccc(F)cc2)CC1.O=C(O)/C=C\\C(=O)O (configuration not stated)"
uom = "µM"
cmp = ">"
data_value = 10

[[record]]
compound = "Cl.O=c1[nH]c2ccccc2c(=O)n1CCN1CCCCC1"
uom = "µM"
cmp = ">"
data_value = 10

[[record]]
compound = "O=C(c1ccccc1)N1CCNCC1"
uom = "µM"
cmp = ">"
data_value = 10


----------
assay_system: Serotonin 2 (5-HT2) receptor (Rattus norvegicus) (UniProt P30994+P08909+P14842)
procedure_details: Selectivity ratio for 5-HT1C compared to 5-HT2 receptors.
Format: protein assay
Entries and their measured Ratio follow.
readout_kind: Ratio

[[record]]
smiles_repr = "O=C(c1ccc(F)cc1)C1CCNCC1"
assay_system = "Serotonin 2 (5-HT2) receptor (Rattus norvegicus) (UniProt P30994+P08909+P14842)"
data_value = 2

[[record]]
smiles_repr = "O=C(O)C(=O)O.O=C(c1ccc(F)cc1)C1CCN(CCCCCc2ccccc2)CC1"
assay_system = "Serotonin 2 (5-HT2) receptor (Rattus norvegicus) (UniProt P30994+P08909+P14842)"
data_value = 40

[[record]]
smiles_repr = "Cl.O=C(CCCN1CCC(C(=O)c2ccc(F)cc2)CC1)c1ccccc1"
assay_system = "Serotonin 2 (5-HT2) receptor (Rattus norvegicus) (UniProt P30994+P08909+P14842)"
data_value = 50

[[record]]
smiles_repr = "O=C(O)C(=O)O.O=C(c1ccc(F)cc1)C1CCN(CCCc2ccccc2)CC1"
assay_system = "Serotonin 2 (5-HT2) receptor (Rattus norvegicus) (UniProt P30994+P08909+P14842)"
data_value = 60

[[record]]
smiles_repr = "O=C(O)/C=C\\C(=O)O.O=C(c1ccccc1)C1CCN(CCn2c(=O)[nH]c3ccccc3c2=O)CC1"
assay_system = "Serotonin 2 (5-HT2) receptor (Rattus norvegicus) (UniProt P30994+P08909+P14842)"
data_value = 115


----------
assay_system: Serotonin 2 (5-HT2) receptor (Rattus norvegicus) (UniProt P30994+P08909+P14842)
procedure_details: Selectivity ratio for 5-HT1C compared to 5-HT2 receptors.
Format: protein assay
readout_kind: Ratio

[[record]]
smiles_repr = "O=C(O)C(=O)O.O=C(c1ccc(F)cc1)C1CCN(CCc2ccccc2)CC1"
data_value = 15

[[record]]
smiles_repr = "O=C(O)C(=O)O.O=C(c1ccc(F)cc1)C1CCN(Cc2ccccc2)CC1"
data_value = 120

[[record]]
smiles_repr = "O=C(O)C(=O)O.O=c1[nH]c2ccccc2c(=O)n1CCN1CCC(Cc2ccc(F)cc2)CC1"
data_value = 17

[[record]]
smiles_repr = "CCN1CCC(C(=O)c2ccc(F)cc2)CC1"
data_value = 12

